Provenance of the data: ChEMBL document CHEMBL4342522

assay: Unbound hepatic clearance in human liver microsomes; assay type: ADME, Microsome
Result type: CL free
Note to self: number, then unit, no commentary.

// fetch CL free given entry `CCNC(=O)c1cc2c(-c3cc(S(=O)(=O)CC)ccc3-n3ccc4cccc(C)c43)cn(C)c(=O)c2[nH]1`
700 mL/min/kg

// fetch CL free given entry `CCNC(=O)c1cc2c(-c3cc(S(C)(=O)=O)ccc3Oc3c(C)cccc3C)cn(C)c(=O)c2[nH]1`
91.7 mL/min/kg

// fetch CL free given entry `Cc1cc(F)cc(C)c1Oc1ccc(C(C)(C)O)cc1-c1cn(C)c(=O)c2[nH]c(C(=O)NC(C)(C)C)cc12`
2170 mL/min/kg
